Where do these numbers come from? They come from paper PMC7654512.

# protocol details: Hydrolytic stability of L-Dopa phosphoramidate prodrugs
# Format: physicochemical
# experimental conditions: buffer, pH 7.4, half-life (t1/2) of hydrolysis, pH 7.4, 37 °C, 31P NMR over 16 h, internal standard TPPO, first-order kinetics
experimental readout: half-life

Given the entry CC(=O)N[C@@H](COP(=O)([O-])N[C@@H](Cc1ccc(O)c(O)c1)C(=O)[O-])C(=O)[O-].[K+].[K+].[K+] , report its measured half-life.
~10 h
